- target desc: AURKA (MV4-11^AURKA-HiBiT cells) (Homo sapiens)
- Construct: expressed in transfected cells; host or cells: MV4-11, lentiviral transduction
- Sequence (O14965 whole entry): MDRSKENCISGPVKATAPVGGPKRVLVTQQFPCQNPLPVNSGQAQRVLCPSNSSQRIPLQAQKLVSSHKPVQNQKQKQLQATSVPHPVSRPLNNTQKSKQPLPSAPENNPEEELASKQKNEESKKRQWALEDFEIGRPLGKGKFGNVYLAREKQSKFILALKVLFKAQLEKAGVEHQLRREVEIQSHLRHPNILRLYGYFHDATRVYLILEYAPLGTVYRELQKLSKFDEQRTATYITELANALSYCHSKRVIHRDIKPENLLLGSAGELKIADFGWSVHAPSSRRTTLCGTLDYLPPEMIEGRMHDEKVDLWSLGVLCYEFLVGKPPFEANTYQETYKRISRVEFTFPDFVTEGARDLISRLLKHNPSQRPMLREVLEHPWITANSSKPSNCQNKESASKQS
- assay: HiBiT assay, AURKA degradation
- Format: cell-based
- applied conditions: 6 h treatment, MV4-11^AURKA-HiBiT cells
Cut-off 40% on Dmax (maximal degradation) AURKA, inclusive. At or above means 1; below means 0.

molecule	target desc	assigned category
O=C1CCC(N2C(=O)c3cccc(NC(=O)CCCC(=O)N4CCN(c5ccc(Nc6nc(NC7CCCCC7)c7nc[nH]c7n6)cc5)CC4)c3C2=O)C(=O)N1 (centres unmarked)	AURKA (MV4-11^AURKA-HiBiT cells) (Homo sapiens)	1
CC(C)S(=O)(=O)c1ccccc1Nc1nc(Nc2ccc(N3CCN(C(=O)COCCOCC(=O)Nc4cccc5c4C(=O)N(C4CCC(=O)NC4=O)C5=O)CC3)cc2)nc2[nH]cnc12 (centres unmarked)	AURKA (MV4-11^AURKA-HiBiT cells) (Homo sapiens)	1
Cc1ncsc1-c1ccc(CNC(=O)[C@@H]2C[C@@H](O)CN2C(=O)[C@@H](NC(=O)CCC(=O)NCCNC(=O)CCC(=O)N2CCN(c3ccc(Nc4nc(NC5CCCCC5)c5nc[nH]c5n4)cc3)CC2)C(C)(C)C)cc1	AURKA (MV4-11^AURKA-HiBiT cells) (Homo sapiens)	0
CC(C)S(=O)(=O)c1ccccc1Nc1nc(Nc2ccc(N3CCN(CCCC(=O)Nc4cccc5c4C(=O)N(C4CCC(=O)NC4=O)C5=O)CC3)cc2)nc2[nH]cnc12 (centres unmarked)	AURKA (MV4-11^AURKA-HiBiT cells) (Homo sapiens)	1
COc1cc(N2CCC(OCC(=O)N3CCN(c4cccc5c4C(=O)N(C4CCC(=O)NC4=O)C5=O)CC3)CC2)ccc1Nc1nc(Nc2ccccc2S(=O)(=O)C(C)C)c2nc[nH]c2n1 (centres unmarked)	AURKA (MV4-11^AURKA-HiBiT cells) (Homo sapiens)	1

Attention now turns to another entry.
Ask: # check: Dmax (maximal degradation) AURKA of CC(C)S(=O)(=O)c1ccccc1Nc1nc(Nc2ccc(N3CCN(C(=O)CCC(=O)NCCNc4cccc5c4C(=O)N(C4CCC(=O)NC4=O)C5=O)CC3)cc2)nc2[nH]cnc12 (centres unmarked) is greater than or equal to 40%
Result: 1
